// data source = ChEMBL document CHEMBL1156129

Would you kindly list EC50 for each of these compounds?
targetOfAssay: Androgen receptor (Mus musculus)
Sequence (P19091 whole entry): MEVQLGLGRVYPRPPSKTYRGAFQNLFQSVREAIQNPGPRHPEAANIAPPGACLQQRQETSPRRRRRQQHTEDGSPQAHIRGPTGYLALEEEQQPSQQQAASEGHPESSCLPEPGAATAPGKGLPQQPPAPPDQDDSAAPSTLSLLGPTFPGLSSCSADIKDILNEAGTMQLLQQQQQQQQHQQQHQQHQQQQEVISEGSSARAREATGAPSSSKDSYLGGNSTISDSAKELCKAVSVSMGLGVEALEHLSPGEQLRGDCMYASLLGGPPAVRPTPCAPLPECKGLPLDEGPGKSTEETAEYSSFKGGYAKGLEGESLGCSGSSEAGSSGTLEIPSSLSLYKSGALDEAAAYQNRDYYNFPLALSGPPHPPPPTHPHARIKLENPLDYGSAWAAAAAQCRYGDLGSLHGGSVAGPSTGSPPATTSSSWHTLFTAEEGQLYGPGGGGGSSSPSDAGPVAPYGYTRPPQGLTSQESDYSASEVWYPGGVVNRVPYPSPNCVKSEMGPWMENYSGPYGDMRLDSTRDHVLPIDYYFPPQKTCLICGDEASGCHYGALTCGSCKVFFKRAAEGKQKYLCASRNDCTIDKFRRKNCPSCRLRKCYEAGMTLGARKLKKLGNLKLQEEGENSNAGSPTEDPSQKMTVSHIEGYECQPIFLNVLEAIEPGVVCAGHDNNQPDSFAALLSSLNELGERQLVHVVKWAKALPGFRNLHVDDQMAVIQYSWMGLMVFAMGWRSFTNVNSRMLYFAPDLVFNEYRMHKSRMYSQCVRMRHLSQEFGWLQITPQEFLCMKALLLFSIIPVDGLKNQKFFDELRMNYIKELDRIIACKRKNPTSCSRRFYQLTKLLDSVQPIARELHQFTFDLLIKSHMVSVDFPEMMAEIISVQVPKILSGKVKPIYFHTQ
assayDetails: Agonist activity at androgen receptor in mouse NIH3T3 cells transiently transfected with beta-galactosidase reporter gene assessed as cellular transformation by R-SAT assay
Give bare numbers, in nM.

Sample answers from the record:
N#Cc1ccc(N2[C@@H]3CC[C@H]2C[C@@H](O)C3)c2ccccc12 (stereo in doubt; 2) ... 12.6
CC[C@]1(O)C[C@H]2CC[C@@H](C1)N2c1ccc(C#N)c2ccccc12 ... 3.98
N#Cc1ccc(N2CCCC2)c2ccccc12 ... 15.8
CC(C)[C@]1(O)C[C@H]2CC[C@@H](C1)N2c1ccc(C#N)c2ccccc12 ... 5.01
N#Cc1ccc(N2[C@@H]3CC[C@@H]2CC(=O)C3)c2ccccc12 ... 100

Working through the 4 compounds below one at a time, give EC50 for each.
1. CCC[C@]1(O)C[C@H]2CC[C@@H](C1)N2c1ccc(C#N)c2ccccc12
2. C=C[C@]1(O)C[C@H]2CC[C@@H](C1)N2c1ccc(C#N)c2ccccc12
3. Cc1c(N2[C@@H]3CC[C@H]2C[C@@H](O)C3)ccc(C#N)c1Cl
4. C[C@]1(O)C[C@H]2CC[C@@H](C1)N2c1ccc(C#N)c2ccccc12

15.8
2
2
2
